Test system: HeLa
Assay: Induction of apoptosis in human HeLa cells assessed as increase in caspase-3 activity by measuring pNA release level at 24 uM incubated for 4 hrs using c-DEVD-pNA substrate by colorimetric assay
Type: functional
Provide the recorded Activity for the entries that follow.
Give bare numbers, in nmol/min/mL.

smilesRepresentation: CC1=C(COC(=O)c2ccccc2)C(=O)O[C@@H]([C@@H](C)[C@H]2CC[C@H]3[C@@H]4C[C@H]5O[C@]56[C@@H](O)C=CC(=O)[C@]6(C)[C@H]4CC[C@]23C)C1
measurementUnit: nmol/min/mL
measuredResult: 1.16
--
smilesRepresentation: CC1=C(COC(=O)C(C)(C)C)C(=O)O[C@@H]([C@@H](C)[C@H]2CC[C@H]3[C@@H]4C[C@H]5O[C@]56[C@@H](OC(=O)C(C)(C)C)C=CC(=O)[C@]6(C)[C@H]4CC[C@]23C)C1
measurementUnit: nmol/min/mL
measuredResult: 0.54
--
smilesRepresentation: CC1=C(COC(=O)c2ccccc2)C(=O)O[C@@H]([C@@H](C)[C@H]2CC[C@H]3[C@@H]4C[C@H]5O[C@]56C(=O)C=CC(=O)[C@]6(C)[C@H]4CC[C@]23C)C1
measurementUnit: nmol/min/mL
measuredResult: 1.05
--
smilesRepresentation: CCC(=O)OCC1=C(C)C[C@H]([C@@H](C)[C@H]2CC[C@H]3[C@@H]4C[C@H]5O[C@]56[C@@H](O)C=CC(=O)[C@]6(C)[C@H]4CC[C@]23C)OC1=O
measurementUnit: nmol/min/mL
measuredResult: 1.9
--
smilesRepresentation: CC(=O)OCC1=C(C)C[C@H]([C@@H](C)[C@H]2CC[C@H]3[C@@H]4C[C@H]5O[C@]56[C@@H](OC(C)=O)C=CC(=O)[C@]6(C)[C@H]4CC[C@]23C)OC1=O
measurementUnit: nmol/min/mL
measuredResult: 1.06
--
smilesRepresentation: CC1=C(COC(=O)c2ccoc2)C(=O)O[C@@H]([C@@H](C)[C@H]2CC[C@H]3[C@@H]4C[C@H]5O[C@]56[C@@H](O)C=CC(=O)[C@]6(C)[C@H]4CC[C@]23C)C1
measurementUnit: nmol/min/mL
measuredResult: 1.01
--
smilesRepresentation: CC1=C(CO)C(=O)O[C@@H]([C@@H](C)[C@H]2CC[C@H]3[C@@H]4C[C@H]5O[C@]56[C@@H](O)C=CC(=O)[C@]6(C)[C@H]4CC[C@]23C)C1
measurementUnit: nmol/min/mL
measuredResult: 0.55
--
smilesRepresentation: CC1=C(COC(=O)C(C)(C)C)C(=O)O[C@@H]([C@@H](C)[C@H]2CC[C@H]3[C@@H]4C[C@H]5O[C@]56[C@@H](O)C=CC(=O)[C@]6(C)[C@H]4CC[C@]23C)C1
measurementUnit: nmol/min/mL
measuredResult: 1.04

For each of the compounds below, note its Activity.
1. CCCC(=O)OCC1=C(C)C[C@H]([C@@H](C)[C@H]2CC[C@H]3[C@@H]4C[C@H]5O[C@]56[C@@H](O)C=CC(=O)[C@]6(C)[C@H]4CC[C@]23C)OC1=O
2. CCCC(=O)OCC1=C(C)C[C@H]([C@@H](C)[C@H]2CC[C@H]3[C@@H]4C[C@H]5O[C@]56[C@@H](OC(=O)CCC)C=CC(=O)[C@]6(C)[C@H]4CC[C@]23C)OC1=O
3. CCC(=O)OCC1=C(C)C[C@H]([C@@H](C)[C@H]2CC[C@H]3[C@@H]4C[C@H]5O[C@]56[C@@H](OC(=O)CC)C=CC(=O)[C@]6(C)[C@H]4CC[C@]23C)OC1=O

Result:
1.24
0.88
1.6
